compounds and their reported pIC50
# tgt: interaction between glucokinase (GK) and glucokinase regulatory protein (GKRP) (Homo sapiens, UniProt Q14397)
# Sequence (Q14397 1-625): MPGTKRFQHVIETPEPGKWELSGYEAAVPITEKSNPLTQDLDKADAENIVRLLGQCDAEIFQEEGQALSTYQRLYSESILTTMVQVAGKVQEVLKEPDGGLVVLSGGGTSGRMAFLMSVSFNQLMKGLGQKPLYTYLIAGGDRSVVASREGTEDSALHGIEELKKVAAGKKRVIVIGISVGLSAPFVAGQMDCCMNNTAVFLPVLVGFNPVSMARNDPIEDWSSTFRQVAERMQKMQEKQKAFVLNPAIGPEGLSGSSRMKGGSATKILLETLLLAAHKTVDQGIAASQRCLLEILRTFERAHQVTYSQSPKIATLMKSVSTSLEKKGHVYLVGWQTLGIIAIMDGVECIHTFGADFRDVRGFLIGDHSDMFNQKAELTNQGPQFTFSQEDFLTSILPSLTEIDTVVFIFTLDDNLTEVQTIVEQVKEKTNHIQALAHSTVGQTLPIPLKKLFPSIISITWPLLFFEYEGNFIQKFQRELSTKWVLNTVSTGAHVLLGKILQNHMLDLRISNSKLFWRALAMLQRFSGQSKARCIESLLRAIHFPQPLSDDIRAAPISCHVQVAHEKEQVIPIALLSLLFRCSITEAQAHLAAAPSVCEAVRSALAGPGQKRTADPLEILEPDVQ
# protocol-details: biochemical
# Assay type: binding
# settings: avi-tagged GKRP, GK-fluorescein, AlphaScreen beads; read-out: GK-GKRP IC50 (Binding)
A value of pIC50 is the negative decimal logarithm of a concentration given in moles per litre.

Field: example entries. Status: answers known.
{"compound": "CC(O)(c1ccc(N2CCN(S(=O)(=O)c3cccs3)C[C@@H]2CS(=O)(=O)c2ccc(F)cc2)cc1)C(F)(F)F (mixture of isomers) [Example 191 Peak#1]", "reported": 6.75}
{"compound": "O=S(=O)(c1nccs1)N1CCN(c2ncc(C(O)(C(F)(F)F)C(F)(F)F)cn2)[C@@H](CN2C3COCC2C(O)C3)C1 (stereo partly drawn) [Example 81]", "reported": 6.75}
{"compound": "CCC1COCCN1C[C@H]1CN(S(=O)(=O)c2cccs2)CCN1c1ccc(C(C)(O)C(F)(F)F)cc1 (mixture of isomers) [Example 143]", "reported": 7.10}

Exercise: Provide pIC50 value for the following compound: CC(=O)N(C[C@H]1CN(S(=O)(=O)c2cccs2)CCN1c1ccc(C(C)(O)C(F)(F)F)cc1)c1ccccc1 (mixture of isomers) [Example 224]
Solution: 8.10

Exercise: Return value of pIC50 for input CC1(C)C(=O)NC(=O)N1C[C@H]1CN(S(=O)(=O)c2cccs2)CCN1c1ccc(C(C)(O)C(F)(F)F)cc1 (mixture of isomers) [Example 228] , no commentary.
Solution: 6.82

Exercise: Identify measured pIC50 associated with C[C@H]1COCCN1C[C@H]1CN(S(=O)(=O)c2cccs2)CCN1c1ccc(C(O)(C(F)(F)F)C(F)(F)F)cc1 [Example 132]
Solution: 8.22

Exercise: Look up pIC50 of CC1(O)C[C@H]2COC[C@@H](C1)N2C[C@H]1CN(S(=O)(=O)c2cccs2)CCN1c1ccc(C(C)(O)C(F)(F)F)cc1 (stereo partly drawn) [Example 108] and report it.
Solution: 7.57

Exercise: Give the value of pIC50 reported for the following: CC(O)(c1ccc(N2CCN(S(=O)(=O)c3cccs3)C[C@@H]2CN(C2COC2)C2COC2)cc1)C(F)(F)F (mixture of isomers) [Example 205]
Solution: 6.36

Exercise: Please report pIC50 for the following compound: CC(O)(c1ccc(N2CCN(S(=O)(=O)c3cccs3)CC2CN2C3COCC2C(O)C3)cc1)C(F)(F)F (single isomer, unassigned) [Example 77 Peak #3]
Solution: 7.54

Exercise: Recall and state the measured pIC50 for CC(O)(c1ccc(N2CCN(S(=O)(=O)c3cccs3)C[C@@H]2CN(C2CCC2)S(C)(=O)=O)cc1)C(F)(F)F (stereo partly drawn) [Example 212] .
Solution: 7.17

Exercise: Return value of pIC50 for input CC(O)(c1ccc(N2CCN(S(=O)(=O)c3cccs3)C[C@@H]2C[S+]([O-])c2ccc(F)cc2)cc1)C(F)(F)F (single isomer, unassigned) [Example 191 Peak#3] , no commentary.
Solution: 6.59

Exercise: Query pIC50 for C[C@H]1CN(S(=O)(=O)c2ccc(N)s2)CCN1c1ncc(C(O)(C(F)(F)F)C(F)(F)F)cn1 [Example 89]
Solution: 6.60
